The values you see were collected from patent US20260242478A1.

This section presents binders with their documented Phage binding ELISA signal, Anti-PSMA Fab with PSMA antigen values.
- Experimental Target: T1, 006 PSMA Fab
- T1 construct: also called Anti-PSMA Fab
- Experiment: clonal phage ELISA on captured PSMA Fab pre-incubated with PSMA antigen as competitor, anti-M13 HRP detection;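 also: crude clonal phage supernatants tested by ELISA, wells first treated with blocking buffer plus PSMA antigen, bound phage read out via HRP-linked anti-M13 antibody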
Where no end group is shown, it is not given here.
Readout Type: Phage binding ELISA signal, Anti-PSMA Fab with PSMA antigen

Binder | Observed Value
VAKLCTPAWMCSAM (cysteine pairing not given here; also: fused to pIII of bacteriophage, linker and pIII sequence not given here, Clonal phage of the Peptide-180 optimization library, tested as crude phage supernatant; not shown: fused to pIII of the bacteriophage) [Phage-2835] | 0.0638
VFPICKPSWMCVGM (cysteine pairing not given here; also: fused to pIII of bacteriophage, linker and pIII sequence not given here, Clonal phage of the Peptide-180 optimization library, tested as crude phage supernatant; not shown: fused to pIII of the bacteriophage) [Phage-2849] | 0.174
VMTVCKPAWMCTGF (cysteine pairing not given here; also: fused to pIII of bacteriophage, linker and pIII sequence not given here, Clonal phage of the Peptide-180 optimization library, tested as crude phage supernatant; not shown: fused to pIII of the bacteriophage) [Phage-2848] | 0.205
WDMLCRPAWMCEGF (cysteine pairing not given here; also: fused to pIII of bacteriophage, linker and pIII sequence not given here, Clonal phage of the Peptide-180 optimization library, tested as crude phage supernatant; not shown: fused to pIII of the bacteriophage) [Phage-2845] | 0.157
ESIRCTPAWMCVEM (cysteine pairing not given here; also: fused to pIII of bacteriophage, linker and pIII sequence not given here, Clonal phage of the Peptide-180 optimization library, tested as crude phage supernatant; not shown: fused to pIII of the bacteriophage) [Phage-2841] | 0.0725
MLPICKPDWMCAGF (cysteine pairing not given here; also: fused to pIII of bacteriophage, linker and pIII sequence not given here, Clonal phage of the Peptide-180 optimization library, tested as crude phage supernatant; not shown: fused to pIII of the bacteriophage) [Phage-2843] | 0.0942
WMPRCVPEWMCAGF (cysteine pairing not given here; also: fused to pIII of bacteriophage, linker and pIII sequence not given here, Clonal phage of the Peptide-180 optimization library, tested as crude phage supernatant; not shown: fused to pIII of the bacteriophage) [Phage-2847] | 0.334
DSHWCMPVWMCMGL (cysteine pairing not given here; also: fused to pIII of bacteriophage, linker and pIII sequence not given here, Clonal phage of the Peptide-180 optimization library, tested as crude phage supernatant; not shown: fused to pIII of the bacteriophage) [Phage-2839] | 0.156
